Tested on: T47D
assay-text: Cytotoxicity against human T47D cells
Type: functional
measurement-conditions: read-out: pTGI (converted)
Entries and their measured TGI follow.
Use µM as the unit, but write only the number.

Consider the following illustrative entries.
COc1cc(/C=C/c2cc(OC)c3cc[nH]c3c2)cc2c1O[C@]1(C)CC[C@@H](O)C(C)(C)[C@H]1C2
50.1
COc1cc(/C=C/c2cc(O)c3c(c2)C[C@@H]2C(C)(C)[C@H](O)CC[C@@]2(C)O3)cc2c1ccn2C
23.4

Next molecule, TGI to be filled in.
[in] Specify TGI for `COc1cc(/C=C/c2cc(O)c3c(c2)C[C@@H]2C(C)(C)[C@H](O)CC[C@@]2(C)O3)cc2[nH]cc(CC=C(C)C)c12` , system T47D.
[out] 39.8
